Test system: A549/ATCC NSCLC
Experiment: NCI-60 one-dose screen, 48 h (100 = growth as untreated, 0 = no growth, -100 = all killed)
Settings: 10 µM unless noted
The panel holds about 83,000 compounds, 20% with a hit somewhere; the sample as a whole holds those more often.
Short version: growth at least 80% is true (1), less is false (0).

compound	classification
CCN1C(=O)N(CC)C2Nn3c(s/c(=C\c4ccc([N+](=O)[O-])cc4)c3=O)=NC21 (stereo not given)	true (1)
CNc1ccc(Nc2cccc(C)c2)c2c1C(=O)c1ccccc1C2=O	true (1)
CCc1cccc2c3c(sc12)C(c1ccc(F)cc1)C(C#N)=C(N)O3 (stereo not given)	false (0)
COc1ccc(-c2cc(-c3ccc(Cl)cc3)c(C#N)c(=O)n2CCCCCC(=O)Nc2ccccc2N)cc1	false (0)
CCOC(=O)c1cn2ncnc(Oc3ccc(NC(=O)NCCN(C)C)c(Cl)c3)c2c1C	true (1)

* * *

System: HOP-92 NSCLC
Assay: NCI-60 one-dose screen, 48 h
Conditions: 10 µM unless noted
Compounds without any hit were thinned out: in the full panel of roughly 83,000, 20% have a hit. Calls of active or inactive are those of the source. How the source made its calls: active means growth percent below 10; inactive means the rest.
Classes used: active, inactive

compound	classification
O=c1ccc(N=Nc2ccc([N+](=O)[O-])cc2)ccc1O	inactive
COc1cc(/C=C2\C(=O)Nc3ccc(Br)cc32)cc(OC)c1OC	inactive
CNc1nc2c(s1)C(c1cccc(F)c1)CC(=O)N2 (stereo not given)	inactive
c1ccc(OCc2nnc(-c3ccc(Oc4ccccc4)cc3)o2)cc1	inactive
O=c1[nH]c2c(ccc3cnccc32)c2c1CCC2	active
COc1ccc2sc3c(NCCCNCCO)nc4ccccc4c3c(=O)c2c1	inactive
CN(C)CC#Cc1ccc2ncc(C#N)c(Nc3ccc(F)c(Cl)c3)c2c1	inactive
C=C1C(=O)O[C@H]2[C@H]1CC/C(COC(=O)NCCOCCOCC(=O)Nc1ccc(OC)c(C(N)=O)c1O)=C\CC[C@@]1(C)O[C@@H]21	inactive
CCOC(=O)c1c(C)nc2c(c1N)CC(=O)N2Cc1ccc(F)cc1	inactive
COc1ccc(C(=O)C[C@]2(O)C(=O)Nc3c(Cl)ccc(Cl)c32)cc1	inactive

* * *

Test system: RXF 393 renal
Assay: NCI-60 one-dose screen, 48 h (100 = growth as untreated, 0 = no growth, -100 = all killed)
Details: 10 µM unless noted
Procedure: Cells are grown in 96 well plates and exposed to the test compound for 48 hours. Compounds are tested at a single concentration, which is 10^-5 M for most compounds. The reported endpoint is percent growth (GI% or GIPRCNT), where numbers from 0 - 100% represent growth inhibition, and numbers from -100% - 0 represent cell death. For example, a value of 40 represents 60% growth inhibition. A value of 0 means no net growth occurred over the course of the experiment. […]
Compounds without any hit were thinned out: in the full panel of roughly 83,000, 20% have a hit.
Friendly reminder: growth below 50% is Fulfilled, at or above is Not fulfilled.

molecule	classification
COc1ccc(S(=O)(=O)n2cc(C3OC(c4cc(OC)c(OC)c(OC)c4)=NN3C(C)=O)c3ccccc32)cc1OC (stereo unspecified)	Not fulfilled
COc1ccc(C(=O)n2nc(-c3ccccc3)nc2N)cc1OC	Not fulfilled
CCOC(=O)Cn1c(C)c(/C=N/NC(=O)c2cc3c(ccc4ccccc43)o2)c2ccccc21	Fulfilled
COc1ccc(CN2c3ccccc3CCc3ccccc32)cc1F	Fulfilled
COc1cccc(-c2nc(-c3ccc(NC(=O)c4ccccc4)cc3)[nH]c2-c2ccnc(Br)c2)c1	Fulfilled
CSc1nc2ccc(C)cc2cc1/C=N/O	Not fulfilled
C=C(C)[C@@H]1CC[C@]2(N=C=O)CC[C@]3(C)[C@H](CC[C@@H]4[C@@]5(C)Cc6c([nH]c7ccccc67)C(C)(C)[C@@H]5CC[C@]43C)[C@@H]12	Not fulfilled
NC(=O)Nc1ccc2ncnc(Nc3ccc(Cl)cc3)c2c1	Not fulfilled
Cc1nc2nc(SCC(=O)O)[nH]c2c(=O)[nH]1	Not fulfilled
COc1cc(CCC[P+](c2ccccc2)(c2ccccc2)c2ccccc2)c(OC)c(OC)c1OC	Not fulfilled
COc1cc(C2CC(c3ccc(N(C)C)cc3)=NN2C(C)=O)cc(OC)c1OC (stereo unspecified)	Fulfilled
O=C(/C=C/c1sc(Cl)nc1Cl)c1ccc(Br)cc1	Not fulfilled
CN(C)c1ccc2nc3ccc(=[N+](C)C)c([N+](=O)[O-])c-3sc2c1	Not fulfilled
Cc1cc2[nH]c(=O)c3c4ncccc4cn3c2cc1C	Fulfilled
O=C(S)CNC(=O)c1ccccc1	Not fulfilled
COc1cccc2nc3n(c12)C(c1c(F)cccc1F)SC3 (stereo unspecified)	Not fulfilled
C/C(=N/NC(N)=S)c1sc(Nc2cccc(Cl)c2)nc1C	Not fulfilled
O=C(CSc1nccc(Nc2ccc(S(=O)(=O)Nc3nccs3)cc2)n1)c1ccc(C(F)(F)F)cc1	Not fulfilled
O=C(Nc1ccc(I)cc1F)c1cc(I)ccc1O	Fulfilled
COc1ccc(NC(=O)n2nc(/C=C\c3ccc(O)c(OC)c3)cc2/C=C\c2ccc(O)c(OC)c2)cc1	Fulfilled
CCCCCCCCCCCCCCCCCC1OCC(COC(=O)O[C@]2(CC)C(=O)OCc3c2cc2n(c3=O)Cc3cc4ccccc4nc3-2)O1 (stereo partly specified)	Not fulfilled

* * *

The entries below are paired with their reported growth.
Tested on: M14 melanoma
Assay: NCI-60 one-dose screen, 48 h (100 = growth as untreated, 0 = no growth, -100 = all killed)
Conditions: 10 µM unless noted
The panel holds about 83,000 compounds, 20% with a hit somewhere; the sample as a whole holds those more often.

compound	growth / %
Cc1nc(S(=O)(=O)c2ccccc2)c(S(=O)(=O)Cc2ccc([N+](=O)[O-])cc2)o1	86.3
Cc1nc2ccccc2c(/C=C/c2ccc(Cl)cc2)c1C(=O)/C=C/c1cccs1	82
CN(C(=O)NCc1cccc(F)c1Cl)[C@H](COC(=O)Nc1cc2ccccc2cn1)CC(O)CO (some centres undefined)	98.8
COc1ccc(NC(=O)n2nc(/C=C\c3ccc(O)c(OC)c3)cc2/C=C\c2ccc(O)c(OC)c2)cc1	4.97
COc1ccc(-c2nc(NCCO)[nH]c(=O)c2C#N)cc1	99.9
COc1cc(C(=O)c2cnc(-c3cccc4[nH]ccc34)[nH]2)cc(OC)c1OC	-6.97
CN(C)c1ccc(/C=N\Nc2cc(=O)[nH]c3ccc(Cl)cc23)cc1	94.5
CCN1C(=O)N(CC)C2Nn3c(s/c(=C4\C(=O)N(CC(C)C)c5ccccc54)c3=O)=NC21 (centres undefined)	18.9
COc1ccn2c(C(C)=O)cc(C(=O)c3ccc4c(c3)Sc3ccccc3N4)c2c1	9.58

* * *

Test system: A549/ATCC NSCLC
Assay: NCI-60 one-dose screen, 48 h
Settings: 10 µM unless noted
This is part of a sample that, as a whole, favours compounds with a hit. Of some 83,000 tested, about 20% had one in any assay. Calls of active or inactive are those of the source. The calls were made as follows: active = growth percent below 10; inactive = the rest.
Classes used: 1 (yes) = active, 0 (no) = inactive

compound	classification
NS(=O)(=O)c1ccc(-n2nc(C(=O)N/N=C\c3ccc(F)cc3)cc2-c2ccc(Br)cc2)cc1	0 (no)
CCCCCCCCCCCCCCCCCCOc1ccccc1CCCOP(=O)(O)OCC[N+](C)(C)C	0 (no)
c1ccc(CO[C@H]2CO[C@H]3[C@@H]2OC[C@@H]3Oc2ccc(Nc3ncnc4ccsc34)cc2)cc1	0 (no)
Cc1ccc(C(CC(=O)O)c2c(C)[nH][nH]c2=O)cc1 (stereo unspecified)	0 (no)
Clc1ccc2c(c1)N(CCCN1CCCC1)c1ccccc1S2	0 (no)
O=c1[nH][n+](-c2ccc(Br)cc2)no1	0 (no)
COC1=C(C)C(=O)c2c(c(CCCl)c3n2CCC3OC(C)=O)C1=O (stereo unspecified)	1 (yes)
CCOC(=O)c1c(C)oc2ncnc(N3CCN(C(=O)COc4ccc(C(C)(C)C)cc4)CC3)c12	0 (no)
COc1cccc2c(=O)c3c(sc12)c(NCCCN)nc1ccccc13	0 (no)
CC(=O)OC[C@H]1OC(Sc2sc(C(=O)c3ccc(Cl)cc3)c(N)c2-c2nc3ccccc3s2)[C@H](OC(C)=O)[C@@H](OC(C)=O)[C@@H]1OC(C)=O (stereo partly specified)	0 (no)
CCOC(=O)C1=C(N)Oc2c(sc3c(C)cccc23)C1c1ccc(OC)cc1 (stereo unspecified)	0 (no)
NC1=NC(c2cccc(Br)c2)c2sc3ccc(Cl)cc3c2N1 (stereo unspecified)	0 (no)
CCOC(=O)C1=C(N)Oc2c(sc3c(CC)cccc23)C1c1ccc(F)cc1 (stereo unspecified)	0 (no)
COc1ccc(S(=O)(=O)n2c3ccccc3n3ncc(-c4nnc(C)o4)c23)cc1	0 (no)
Cc1cc(N2CCCC2)nc(N(CCCNc2ccnc3cc(Cl)ccc23)Cc2ccccn2)n1	0 (no)
C=CCc1cc(C)ccc1NC(C(=O)NCC(=O)OC)c1ccccc1 (stereo unspecified)	0 (no)
Cc1ccc(C2CC(c3ccc(Nc4ccnc5cc(Cl)ccc45)cc3)=NN2C=O)cc1 (stereo unspecified)	0 (no)
Nc1cc2c(cc1Br)-c1cc(Cl)ccc1C2=O	0 (no)
Cc1ccc(/C=C(\C#N)n2nc3cccc(F)c3n2)cc1	0 (no)
COc1ccccc1/C=C1\Oc2cc(OCCN3CCC(Cc4ccccc4)CC3)ccc2C1=O	0 (no)
Nc1ccccc1-c1cc2c(c3c1[nH]c1ccccc13)CCCCC2	0 (no)
